System: parental HEK cells
Test Description: HEK parental Agonist Counterscreen Assay (non-transfected cells)
Assay type: cell-based
Particulars: HEK Agonist Activity section
For each entry below, report its Lipophilic Efficiency (logP) value.
Answers are plain numbers.

For the 3 molecules below, give their Lipophilic Efficiency (logP) values.
1. Cc1ccc(CNc2nc3ccccc3n2CCN2CCOCC2)cc1
2. O=C(Nc1ccc(-c2cn[nH]c2)cc1OCCN1CCCC1)C1COc2ccc(F)cc2C1.O=C(O)C(F)(F)F.O=C(O)C(F)(F)F (centres unmarked)
3. CC(C)Cn1c2c(c(=O)[nH]c1=O)C(NC(=O)CCC1CCCCC1)(C(F)(F)F)C(=O)N2 (centres unmarked)

[reply]
1. 1.08
2. 1.38
3. 2.40

For the 5 molecules below, give their Lipophilic Efficiency (logP) values.
1. O=C(Nc1ccc(-c2c[nH]cn2)cc1)C1COc2ccc(F)cc2C1 (centres unmarked)
2. Cc1ccc(Br)cc1S(=O)(=O)NCCC(=O)NCCc1sccc1C
3. O=C(Cn1ncc2c1-c1ccccc1OC2)Nc1ccccn1
4. C#CC1=C(CCCc2ccc(CC)cc2)CC(CCc2ccccc2CC)=C1
5. COc1cc(C(C)=O)ccc1OCC(=O)OCC(=O)NCCCc1ccccc1

[reply]
1. 1.64
2. 3.16
3. 3.00
4. 1.79
5. 2.66
